Exercise: for every item that follows, state its recorded Inhibition.
# Test system: Cryptococcus neoformans
# MEASUREMENT_SETUP: Concentration 32 ug.mL-1; ASSAY_TEST Inhibition of Fungal Growth; detection method Resazurin; Absorption (OD600-OD570); plate type 384well; NBS; CORNING #3640
# Description: Antifungal activity against Cryptococcus neoformans H99 ATCC 208821 (CO-ADD:FG_002); MIC in YNB media using NBS plates, by Resazurin OD(600-570)
Entries with a potency or affinity are not part of this list.
Numbers only, in %.

// known answers, use as guide
Cc1ccc(CNC(=O)Cn2nc3c(N4CCN(c5ccccc5C)CC4)nccn3c2=O)cc1 | -8.71
CCc1cccc(NC(=O)Cn2nc3c(SC4CCCCC4)nccn3c2=O)c1 | -17.3
O=C(Cn1nc2ccc(Sc3ccccc3)nn2c1=O)N1CCN(c2ccc(F)cc2)CC1 | -5.51
O=C(Cn1nc2c(SC3CCCCC3)nccn2c1=O)Nc1cccc(Br)c1 | -20.18
COc1ccc(NC(=O)CSc2nc3ccccc3n3c(C(C)C)nnc23)c(OC)c1 | -21.27
Cc1ccccc1Oc1nc2ccccc2n2c(=O)n(CC(=O)Nc3ccccc3C(F)(F)F)nc12 | -23.01
O=C(CSc1nnc2c3cc(-c4ccc(F)cc4)nn3ccn12)Nc1ccccc1C(F)(F)F | -18.14
O=C(Cn1nc2nc(Nc3ccc(F)cc3)ccn2c1=O)NCC1CCCO1 (stereo not given) | -8.84
Cc1ccc(-c2cc3c4nn(CC(=O)Nc5ccccc5Cl)c(=O)n4ccn3n2)cc1 | -23.03

Proceed to the following item.
Req: Fill blank: measured Inhibition of the molecule `Cc1ccc(-c2ccc3nnc(CCC(=O)NCc4cccc(Br)c4)n3n2)cc1` is ____.
Resp: -54.18

----------
# Test system: Klebsiella pneumoniae
# MEASUREMENT_SETUP: Concentration 32 ug.mL-1;; ASSAY_TEST Inhibition of Bacterial Growth; detection method Absorption (OD600); MEDIA CAMHB; plate type 384well; NBS; CORNING #3640; time 18 hr
# Description: Antibacterial activity against Klebsiella pneumoniae MDR ATCC 70063 (CO-ADD:GN_003); MIC in CAMBH media using NBS plates, by OD(600)
Measured potencies and affinities stand elsewhere.
Exercise: for every item that follows, state its recorded Inhibition.
Give bare numbers, in %.

COc1ccc(NC(=O)Cn2nc3c(Sc4ccccc4)nccn3c2=O)cc1 | 7.48

Hi, could you look up Inhibition for each item in my list?
1. CCC(Sc1nnc2c(=O)n(-c3cccc(OC)c3)ccn12)C(=O)Nc1ccccc1C (stereo not given)
2. CC(C)c1nnc2c(SCC(=O)Nc3ccc(Cl)cc3C(F)(F)F)nc3ccccc3n12
3. Cc1c(Cl)cccc1NC(=O)Cn1nc2c(SCc3ccccc3)nccn2c1=O
4. Cc1ccc(C)c(NC(=O)Cn2nc3n(C)c(=O)c4c(c(-c5ccccc5)cn4C)n3c2=O)c1

Resp:
1: 4.33; 2: 1.04; 3: 1.96; 4: -7.88

----------
# Test system: Cryptococcus neoformans
# MEASUREMENT_SETUP: Concentration 32 ug.mL-1; ASSAY_TEST Inhibition of Fungal Growth; detection method Resazurin; Absorption (OD600-OD570); plate type 384well; NBS; CORNING #3640
Potency and affinity values are given separately.
# label = True if Inhibition < -10% else False

Req: Quick check: Inhibition of `COc1cccc(NC(=O)Cn2c(=O)c3nnc(C(C)C)n3c3ccccc32)c1` under -10%?
Resp: True

----------
# Test system: Cryptococcus neoformans
# MEASUREMENT_SETUP: Concentration 32 ug.mL-1; ASSAY_TEST Inhibition of Fungal Growth; detection method Resazurin; Absorption (OD600-OD570); plate type 384well; NBS; CORNING #3640
Entries with a potency or affinity are not part of this list.
Returns 1 (yes) if the recorded Inhibition is greater than or equal to -10%, and 0 (no) otherwise.

Solved cases below.
Cc1ccccc1Oc1nccn2c(=O)n(CC(=O)Nc3ccc(C#N)cc3)nc12 | 1 (yes)
Cc1ccc(Sc2ccc3nn(CC(=O)Nc4ccc(F)c(Cl)c4)c(=O)n3n2)cc1 | 1 (yes)
Cc1nnc2c(=O)n(CC(=O)Nc3ccc(F)cc3F)c3ccccc3n12 | 0 (no)
CC(C)c1nnc2c(=O)n(CC(=O)Nc3ccc(Br)cc3)c3ccccc3n12 | 1 (yes)

Would you kindly look at the next entry?
Req: Evaluate `Cn1c(=O)c2ccc(C(=O)NC3CCCCC3)cc2n2c(=O)n(CC#N)nc12` : Inhibition at minimum -10%?
Resp: 0 (no)
